molecular target: kiwifruit GDP-L-Galactose Guanyltransferase EST 319998 (Actinidia chinensis, UniProt A0A2R6QD99); assay: Continuous coupled assay of transferase activity with guanyl acceptors; settings: sugar phosphate as guanyl acceptor; epimerase generated substrate; N = 6
Sequence (A0A2R6QD99 entry or part of it): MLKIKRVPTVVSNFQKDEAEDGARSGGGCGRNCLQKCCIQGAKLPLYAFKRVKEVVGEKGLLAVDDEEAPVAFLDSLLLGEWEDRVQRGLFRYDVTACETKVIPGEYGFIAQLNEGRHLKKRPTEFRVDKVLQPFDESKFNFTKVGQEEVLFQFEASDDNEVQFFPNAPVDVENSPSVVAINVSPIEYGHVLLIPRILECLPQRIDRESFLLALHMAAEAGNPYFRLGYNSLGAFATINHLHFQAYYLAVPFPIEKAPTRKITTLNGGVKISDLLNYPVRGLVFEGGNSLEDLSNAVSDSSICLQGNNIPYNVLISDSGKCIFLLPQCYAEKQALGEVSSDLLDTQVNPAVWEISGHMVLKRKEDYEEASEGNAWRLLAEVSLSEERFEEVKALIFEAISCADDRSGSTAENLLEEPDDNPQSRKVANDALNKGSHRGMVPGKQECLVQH
The following compounds are shown together with reported Rate values.
# number only, unit nmoles/sec/ug protein dropped from output

Task item: Fill in reported Rate for this entry: O=P(O)(O)O[C@H]1O[C@H](CO)[C@H](O)[C@H](O)[C@H]1O [D-Galactose-1-P]
Reply: 0.38

Task item: Fill in reported Rate for this entry: O=P(O)(O)O[C@H]1O[C@H](CO)[C@@H](O)[C@H](O)[C@@H]1O [D-Mannose-1-P, D-Mannose-1-Phosphate]
Reply: 0.33

Task item: Fill in reported Rate for this entry: O=P(O)(O)OC1[C@@H](O)[C@H](O)C(O)[C@H](O)[C@@H]1O (stereo partly drawn) [L-Myoinositol-1-P]
Reply: 0.42

Task item: Fill in reported Rate for this entry: O=P(O)(O)OC[C@H]1OC(O)[C@H](O)[C@@H](O)[C@@H]1O (stereo partly drawn) [D-Glucose-6-P]
Reply: 0.08

Provenance of the data: patent US9157088B2
